Test system: MDA-MB-468
ASSAY SUMMARY: Growth inhibition of human MDA-MB-468 cells assessed as cell viability measured after 4 days by WST8 assay
Type: functional, cell-based
APPLIED CONDITIONS: MDA-MB-468, 96 h
MEASUREMENT NAME: pIC50
// pIC50 here means minus log10 of the molar concentration (mol/L)

Examples from the recorded data:
CC(C)c1cnn2c(NCc3ccc(NC(=O)CCCCCCCCOc4cccc5c4C(=O)N(C4CCC(=O)NC4=O)C5=O)cc3)nc(OC3CCN(C)CC3)nc12 (stereo unspecified) : 6.92
CC(C)c1cnn2c(NCc3ccc(NC(=O)CCCCCN4CCN(CCCCCc5cccc6c5CN(C5CCC(=O)NC5=O)C6=O)CC4)cc3)nc(OC3CCN(C)CC3)nc12 (stereo unspecified) : 6.65
CC(C)c1cnn2c(NCc3cc(CCCCCCNC(=O)COc4cccc5c4C(=O)N(C4CCC(=O)NC4=O)C5=O)ccc3N(C)C)nc(OC3CCN(C)CC3)nc12 (stereo unspecified) : 4.75

The reported pIC50 of the molecule CC(C)c1cnn2c(NCc3ccc(CCCCCCCOc4cccc5c4C(=O)N(C4CCC(=O)NC4=O)C5=O)cc3)nc(OC3CCN(C)CC3)nc12 (stereo unspecified) was 5.49

Reported pIC50 for CC(C)c1cnn2c(NCc3ccc(NC(=O)CCCCCCc4cccc5c4CN(C4CCC(=O)NC4=O)C5=O)cc3)nc(OC3CCN(C)CC3)nc12 (stereo unspecified) was 6.89

---

The compounds listed here are annotated with their IC50.
System: MDA-MB-468
ASSAY SUMMARY: Growth inhibition of human MDA-MB-468 cells assessed as cell viability measured after 4 days by WST8 assay
Assay type: functional, cell-based
APPLIED CONDITIONS: MDA-MB-468, 96 h

Completed entries (count: 2):
CC(C)c1cnn2c(NCc3ccc(NC(=O)CCCCCCCCCOc4cccc5c4CN(C4CCC(=O)NC4=O)C5=O)cc3)nc(OC3CCN(C)CC3)nc12 (stereo not drawn) : 0.184 µM
CC(C)c1cnn2c(NCc3ccccc3)cc(NCCCCCCNCCOCCOCCOCCNC(=O)COc3cccc4c3C(=O)N(C3CCC(=O)NC3=O)C4=O)nc12 (stereo not drawn) : > 20 µM

Continue with the next compound.
IC50 reading for CC(C)c1cnn2c(NCc3cccc(NC(=O)CCCCCCNC(=O)COc4cccc5c4C(=O)N(C4CCC(=O)NC4=O)C5=O)c3)nc(OC3CCN(C)CC3)nc12 (stereo not drawn) : > 20 µM

---

System: BT-549
ASSAY SUMMARY: Growth inhibition of human BT-549 cells assessed as cell viability measured after 4 days by WST8 assay
Type: functional, cell-based
APPLIED CONDITIONS: BT-549, 96 h
MEASUREMENT NAME: pIC50
Please express pIC50 as -log10 of the molar concentration.

CC(C)c1cnn2c(NCc3ccc(NC(=O)CCCCCCOc4cccc5c4CN(C4CCC(=O)NC4=O)C5=O)cc3)nc(OC3CCN(C)CC3)nc12 (stereo unspecified) : 6.33
CC(C)c1cnn2c(NCc3ccc(NC(=O)CCCCCCNc4cccc5c4C(=O)N(C4CCC(=O)NC4=O)C5=O)cc3N(C)C)nc(OC3CCN(C)CC3)nc12 (stereo unspecified) : 5.58
CC(C)c1cnn2c(NCc3ccc(CCCCCCCOc4cccc5c4C(=O)N(C4CCC(=O)NC4=O)C5=O)cc3N(C)C)nc(OC3CCN(C)CC3)nc12 (stereo unspecified) : 5.39

The record that follows has no pIC50 shown yet.
Data point: CC(C)c1cnn2c(NCc3ccc(NC(=O)CCCCCOc4cccc5c4C(=O)N(C4CCC(=O)NC4=O)C5=O)cc3)nc(OC3CCN(C)CC3)nc12 (stereo unspecified) ; pIC50 = 6.19

---

Tested on: MDA-MB-468
ASSAY SUMMARY: Growth inhibition of human MDA-MB-468 cells assessed as cell viability measured after 4 days by WST8 assay
Type: functional, cell-based
APPLIED CONDITIONS: MDA-MB-468, 96 h
Documented pIC50 across a set of molecules
The scale used: pIC50 is minus the common logarithm of the concentration in molar units.

Guide cases for pIC50, answers given:
CC(C)c1cnn2c(NCc3ccccc3)nc(OC3CCN(C)CC3)nc12 : 5.51
CC[C@@H](CO)Nc1cc(NCc2ccc(NC(=O)N3CCN(CCCCCc4cccc5c4CN(C4CCC(=O)NC4=O)C5=O)CC3)cc2)n2ncc(C(C)C)c2n1 (some centres undefined) : 4.82

pIC50 reading for CC(C)c1cnn2c(NCc3ccccc3)cc(NCCCCCCN)nc12 : 4.79

---

Tested on: BT-549
ASSAY SUMMARY: Growth inhibition of human BT-549 cells assessed as cell viability measured after 4 days by WST8 assay
Format: functional, cell-based
APPLIED CONDITIONS: BT-549, 96 h
We begin with a simple list: items and their reported pIC50.
// scale note: pIC50 = -log10(conc_M); give the bare number

CC(C)c1cnn2c(NCc3ccc(NC(=O)COCCOCCOCCOc4cccc5c4C(=O)N(C4CCC(=O)NC4=O)C5=O)cc3)nc(OC3CCN(C)CC3)nc12 (stereo not drawn) : 5.33

Input CC(C)c1cnn2c(NCc3ccccc3)nc(OC3CCN(CCOCCOCCNC(=O)COc4cccc5c4C(=O)N(C4CCC(=O)NC4=O)C5=O)CC3)nc12 (stereo not drawn) . Output pIC50: 5.01

---

Tested on: BT-549
ASSAY SUMMARY: Growth inhibition of human BT-549 cells assessed as cell viability measured after 4 days by WST8 assay
Assay type: functional, cell-based
APPLIED CONDITIONS: BT-549, 96 h
MEASUREMENT NAME: log10 IC50 (log10 of the value in µM)
Remember, log10 of IC50, in µM.

The cases that follow already have their log10 IC50 on record.
CC(C)c1cnn2c(NCc3ccccc3-n3ccnc3)nc(OC3CCN(CCOCCOCCOCCNC(=O)COc4cccc5c4C(=O)N(C4CCC(=O)NC4=O)C5=O)CC3)nc12 (stereo unspecified) : 1.33
CC(C)c1cnn2c(NCc3ccc(NC(=O)CCCCCCNC(=O)COc4cccc5c4C(=O)N(C4CCC(=O)NC4=O)C5=O)cc3N(C)C)nc(OC3CCN(C)CC3)nc12 (stereo unspecified) : 1.16
CC(C)c1cnn2c(NCc3ccc(NC(=O)CCCCCCCCOc4cccc5c4C(=O)N(C4CCC(=O)NC4=O)C5=O)cc3)nc(OC3CCN(C)CC3)nc12 (stereo unspecified) : -0.92
CC(C)c1cnn2c(NCc3ccc(CCCCCCNC(=O)COc4cccc5c4C(=O)N(C4CCC(=O)NC4=O)C5=O)cc3)cc(NCCCCCCN)nc12 (stereo unspecified) : 1.11

Turning to the following compound.
The reported log10 IC50 of the compound CC(C)c1cnn2c(NCc3ccc(NC(=O)CCCCCCCCCOc4cccc5c4CN(C4CCC(=O)NC4=O)C5=O)cc3)nc(OC3CCN(C)CC3)nc12 (stereo unspecified) was -1.46

---

System: MDA-MB-468
ASSAY SUMMARY: Growth inhibition of human MDA-MB-468 cells assessed as cell viability measured after 4 days by WST8 assay
Assay type: functional, cell-based
APPLIED CONDITIONS: MDA-MB-468, 96 h
In this section we review reported IC50 values for a set of molecules.
Response body: numeric value in µM, unit text excluded.

Example molecules with recorded IC50:
CC(C)c1cnn2c(NCc3ccc(NC(=O)COCCOCCOc4cccc5c4C(=O)N(C4CCC(=O)NC4=O)C5=O)cc3)nc(OC3CCN(C)CC3)nc12 (stereo unspecified) : 4.59
CC(C)c1cnn2c(NCc3ccc(NC(=O)CCCN4CCN(CCCCCc5cccc6c5CN(C5CCC(=O)NC5=O)C6=O)CC4)cc3)nc(OC3CCN(C)CC3)nc12 (stereo unspecified) : 0.34

Now examine the next entry.
The reported IC50 of the molecule CC(C)c1cnn2c(NCc3cccc(CCCCCCCOc4cccc5c4C(=O)N(C4CCC(=O)NC4=O)C5=O)c3N(C)C)nc(OC3CCN(C)CC3)nc12 (stereo unspecified) was 3.45

---

Tested on: MDA-MB-468
ASSAY SUMMARY: Growth inhibition of human MDA-MB-468 cells assessed as cell viability measured after 4 days by WST8 assay
Assay type: functional, cell-based
APPLIED CONDITIONS: MDA-MB-468, 96 h
Collected IC50 values appear next to each entry.
Use µM as the unit, but write only the number.

Would you please look over these solved cases?
CC(C)c1cnn2c(NCc3ccccc3-n3ccnc3)nc(OC3CCN(C)CC3)nc12 : 3.92
CC(C)c1cnn2c(NCc3ccc(NC(=O)CCCCCCNc4cccc5c4C(=O)N(C4CCC(=O)NC4=O)C5=O)cc3N(C)C)nc(OC3CCN(C)CC3)nc12 (stereo unspecified) : 4.89
CC(C)c1cnn2c(NCc3ccc(CCCOCCOCCOc4cccc5c4C(=O)N(C4CCC(=O)NC4=O)C5=O)cc3)nc(OC3CCN(C)CC3)nc12 (stereo unspecified) : 3.37

For reference, reported IC50 for CC(C)c1cnn2c(NCc3ccccc3-n3ccnc3)nc(OC3CCN(CCOCCNC(=O)COc4cccc5c4C(=O)N(C4CCC(=O)NC4=O)C5=O)CC3)nc12 (stereo unspecified) stands at 15.8

Given item CC(C)c1cnn2c(NCc3ccc(NC(=O)CCCN4CCN(CCCc5cccc6c5CN(C5CCC(=O)NC5=O)C6=O)CC4)cc3)nc(OC3CCN(C)CC3)nc12 (stereo unspecified) , the value recorded as its IC50 is 0.59
